- tested-target: T1, human GIP receptor (human) (UniProt P48546)
- T1 sequence (looked up): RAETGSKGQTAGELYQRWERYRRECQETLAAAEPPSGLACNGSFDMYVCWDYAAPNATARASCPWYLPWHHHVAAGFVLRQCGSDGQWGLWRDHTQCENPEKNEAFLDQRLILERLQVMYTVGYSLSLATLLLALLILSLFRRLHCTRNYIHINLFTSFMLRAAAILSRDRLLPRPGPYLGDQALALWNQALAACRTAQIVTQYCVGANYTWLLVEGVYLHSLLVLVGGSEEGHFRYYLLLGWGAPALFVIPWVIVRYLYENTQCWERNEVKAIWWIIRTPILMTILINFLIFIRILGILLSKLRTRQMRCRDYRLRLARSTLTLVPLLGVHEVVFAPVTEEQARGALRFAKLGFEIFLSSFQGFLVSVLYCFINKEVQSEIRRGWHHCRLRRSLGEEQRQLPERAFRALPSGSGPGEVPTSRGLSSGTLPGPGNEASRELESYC
- assay-protocol: cell-based or functional assay
readout-name: log10 of Relative cAMP EC50, nM (0.1% casein) (log10 of the value in nM)
All values: base-10 log of Relative cAMP EC50, nM (0.1% casein) in nM.

Look over these answered cases.
YXQGTFTSDFSXXLDKKAQXAFIEYLLEXGPSSGEPPPSGT (non-natural residues (Aib, Orn, αMeL); lipidated K; C-terminal amide; synthetic construct; SITE 2: note = 2-Aminoisobutyric Acid; SITE 12: note = L-ornithine; SITE 13: note = alpha-methyl-leucine; SITE 17: note = Lysine is chemically modified through conjugation of the epsilon-amino group of the Lysine side chain with (2-[2-(2-Amino-ethoxy)-ethoxy]-acetyl)2-(gamma-Glu)) [Example 167] :: -1.00
YXQGTXTSDXXIXLDXKAQXXFIEXLIEGGPSSGEPPPEEG (synthetic construct; SITE 2: note = 2-Aminoisobutyric Acid; SITE 6: note = alpha-methyl-2-fluoro-L-phenylalanine; SITE 10: note = 3-(4-Pyridyl)-L-alanine; SITE 11: note = alpha-methyl-L-serine; SITE 13: note = alpha-methyl-leucine; SITE 16: note = L-ornithine; SITE 17: note = Lysine is chemically mo) [Example 462] :: -1.83
YXQGTFTSDFSXXLDKKAQXAFIEWLLEGGTSSGAPPPSGT (non-natural residues, AEEA-γGlu-C18 diacid acylation, C-terminal amide; synthetic construct; SITE 2: note = 2-Aminoisobutyric Acid; SITE 12: note = L-ornithine; SITE 13: note = alpha-methyl-leucine; SITE 17: note = Lysine is chemically modified through conjugation of the epsilon-amino group of the Lysine side chain with (2-[2-(2-Amino-ethoxy)-ethoxy]-acetyl)-(gamma-Glu)) [Example 177] :: -0.67
YXQGTFTSDFSXXLDKKAQXAFIEYLLEXGPSSGAPPPEGS (Aib, Orn, αMeL; acylated lysine; C-terminal amide; synthetic construct; SITE 2: note = 2-Aminoisobutyric Acid; SITE 12: note = L-ornithine; SITE 13: note = alpha-methyl-leucine; SITE 17: note = Lysine is chemically modified through conjugation of the epsilon-amino group of the Lysine side chain with (2-[2-(2-Amino-ethoxy)-ethoxy]-acetyl)2-(gamma-Glu)) [Example 194] :: -0.67

Here are 2 binders. What values of log10 of Relative cAMP EC50, nM (0.1% casein) were reported for them?
1. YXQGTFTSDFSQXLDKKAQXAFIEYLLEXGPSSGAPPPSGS (Lys acylated with AEEA-γGlu-C18 diacid; non-natural residues; C-amide; synthetic construct; SITE 2: note = 2-Aminoisobutyric Acid; SITE 13: note = alpha-methyl-leucine; SITE 17: note = Lysine is chemically modified through conjugation of the epsilon-amino group of the Lysine side chain with (2-[2-(2-Amino-ethoxy)-ethoxy]-acetyl)-(gamma-Glu)-CO-(CH2) 16-CO2H; SITE 20: n) [Example 151]
2. YXQGTFTSDFSXXLDKKAQXAFIEYLLEXGHSSGAPPPSGE (Aib, Orn, αMeL; AEEA2-γGlu-C18 diacid acyl; C-terminal amide; synthetic construct; SITE 2: note = 2-Aminoisobutyric Acid; SITE 12: note = L-ornithine; SITE 13: note = alpha-methyl-leucine; SITE 17: note = Lysine is chemically modified through conjugation of the epsilon-amino group of the Lysine side chain with (2-[2-(2-Amino-ethoxy)-ethoxy]-acetyl)2-(gamma-Glu)) [Example 186]

1: -1.11; 2: -0.97
